Assay: In vivo toxicology, daily iv Camptosar or HyCAMP
Details: male, F1 CBAXC57 (out-bred), mouse, in vivo, intravenous
Counter-ions that a name gives are not always drawn.

{"compound": "CCc1c2c(nc3ccc(OC(=O)N4CCC(N5CCCCC5)CC4)cc13)-c1cc3c(c(=O)n1C2)COC(=O)[C@]3(O)CC [Camptosar, irinotecan hydrochloride]", "LD50 at 14 days": "475 to 550 mg/kg"}

###

Tested on: LIM 2099
Assay: Drug cytotoxicity assay, Camptosar ± 100 nM hyaluronan
Format: cell-based
Conditions: Homo sapiens; 48 hours continuous exposure; HyCAMP = Camptosar + 100 nM hyaluronan
Counter-ions that a name gives are not always drawn.
readout.name: IC50 (µM)

{"molecule": "CCc1c2c(nc3ccc(OC(=O)N4CCC(N5CCCCC5)CC4)cc13)-c1cc3c(c(=O)n1C2)COC(=O)[C@]3(O)CC [Camptosar, irinotecan hydrochloride]", "numeric.result": 31}

###

Assay: In vivo toxicology, daily iv Camptosar or HyCAMP
Conditions: male, F1 CBAXC57 (out-bred), mouse, in vivo, iv, 50 mg/kg
Counter-ions that a name gives are not always drawn.
readout.name: LD50 (mg/kg)

{"compound": "CCc1c2c(nc3ccc(OC(=O)N4CCC(N5CCCCC5)CC4)cc13)-c1cc3c(c(=O)n1C2)COC(=O)[C@]3(O)CC [Camptosar, irinotecan hydrochloride]", "readout.name": "LD50", "scale.unit": "mg/kg", "numeric.result": 475}

###

Test: In vivo toxicology, daily iv Camptosar or HyCAMP
Settings: male, F1 CBAXC57 (out-bred), mouse, in vivo, iv, 100 mg/kg
Where a name gives a salt, the structure may show the parent alone.

{"compound": "CCc1c2c(nc3ccc(OC(=O)N4CCC(N5CCCCC5)CC4)cc13)-c1cc3c(c(=O)n1C2)COC(=O)[C@]3(O)CC [Camptosar, irinotecan hydrochloride]", "LD50 [mg/kg]": 550}
